Data provenance: ChEMBL document CHEMBL1141286

System: NCI-H322M
Assay: Growth inhibition of human NCI-H322M cells
Format: functional
Conditions: read-out: Log LC50 (the source's name) (converted)
Give measured CC50 for each item. Keep answers brief.

For each entry beneath this line, provide reported CC50.
1. COc1cc(O)cc2cc3oc(C)cc(=O)c3c(OC)c12
2. CCCc1cc(=O)c2c(OC)c3c(OC)cc(OC)cc3cc2o1
3. COc1cc(O)cc2cc3oc(C)cc(=O)c3c(O)c12
4. CCCc1cc(=O)c2c(OC)c3c(OC)cc(O)c(Oc4c(O)cc(OC)c5c(OC)c6c(=O)cc(CCC)oc6cc45)c3cc2o1
5. CCCc1cc(=O)c2c(O)c3c(OC)cc(O)cc3cc2o1

> 100 µM
> 100 µM
> 100 µM
55 µM
> 100 µM

* * *

Please respond with reported GI50 for every item in the list.
Test system: UO-31
Experiment: Growth inhibition of human UO31 cells
Type: functional
One number for each entry, in µM.

{"query.smiles": "CCCc1cc(=O)c2c(OC)c3c(OC)cc(OC)cc3cc2o1", "units.of.measure": "µM", "quantitative.result": 42.7}
{"query.smiles": "COc1cc(O)cc2cc3oc(C)cc(=O)c3c(O)c12", "units.of.measure": "µM", "quantitative.result": 5.13}
{"query.smiles": "CCCc1cc(=O)c2c(OC)c3c(OC)cc(O)c(Oc4c(O)cc(OC)c5c(OC)c6c(=O)cc(CCC)oc6cc45)c3cc2o1", "units.of.measure": "µM", "quantitative.result": 6.61}

Turning to the following compound.
I am curious: what GI50 value has been reported for `CCCc1cc(=O)c2c(O)c3c(OC)cc(O)cc3cc2o1` ?
16.2

* * *

Give measured pIC50 for each item. Keep answers brief.
Assay: Inhibition of HIF1 activation in PC3 cells by TK-luciferase assay
Format: cell-based
Settings: Homo sapiens, PC-3
Numbers only, as −log10 of the molar value.

Some solved entries appear below for comparison.
{"query.smiles": "COc1cc(O)cc2cc3oc(C)cc(=O)c3c(OC)c12", "quantitative.result": 5.00}
{"query.smiles": "CCCc1cc(=O)c2c(OC)c3c(OC)cc(O)cc3cc2o1", "quantitative.result": 5.49}

// each listed molecule needs a value for pIC50
1. CCCc1cc(=O)c2c(OC)c3c(OC)cc(O)c(Oc4c(O)cc(OC)c5c(OC)c6c(=O)cc(CCC)oc6cc45)c3cc2o1
2. CCCc1cc(=O)c2c(O)c3c(OC)cc(O)cc3cc2o1
3. COc1cc(O)cc2cc3oc(C)cc(=O)c3c(O)c12

1. 5.00
2. 6.00
3. 5.48

* * *

Could you please report measured GI50 for the items listed next?
Tested on: SK-OV-3
Assay: Growth inhibition of human SK-OV3 cells
Type: functional
Numbers only, in µM.

Look over these answered cases.
{"query.smiles": "CCCc1cc(=O)c2c(OC)c3c(OC)cc(O)c(Oc4c(O)cc(OC)c5c(OC)c6c(=O)cc(CCC)oc6cc45)c3cc2o1", "GI50 (µM)": 15.1}
{"query.smiles": "COc1cc(O)cc2cc3oc(C)cc(=O)c3c(O)c12", "GI50 (µM)": 31.6}

Alright, here's another molecule for you.
Given `CCCc1cc(=O)c2c(O)c3c(OC)cc(O)cc3cc2o1` , state its recorded GI50.
32.4
